System: pERK level in H358 cells
Assay comment: pERK and ERK protein content assay in H358 cells (ELISA)
Assay type: cell-based
Measurement conditions: Homo sapiens, NCI-H358, compound 1 μM, 24 h, pERK/ERK ratio compared with DMSO group, read-out: Inhibition rate (%) of pERK level
Description: H358 cells were seeded in a 24-well plate. After one day of growth, a test compound (at a concentration of 1 μM) was added. After 24 h of action of the compound, the cells were lysed, and the cell lysate was transferred to a 96-well ELISA plate. The levels of pERK and ERK in the lysate were measured using an ELISA kit (abcam 176660). The ratio of pERK to ERK was calculated and compared with that of the DMSO group, and the percentage of inhibition of pERK activity by the compound was calculated.
Measure name: inhibition at 1 µM

Worked examples follow.
Molecule	Target entity	inhibition at 1 µM
C=CC(=O)N1CC2(CCN(c3nc(N4CC(N5CC(C)C5)C4)nc4c(OCC(F)(F)F)c(-c5c(C)ccc6[nH]ncc56)c(C5CC5)cc34)CC2)C1 [Compound 237]	pERK level in H358 cells	> 90%
C=CC(=O)N1CC2(CCN(c3nc(N4CC5(C4)[C@@H](N(C)C)CCN5C)nc4c(OCC(F)(F)F)c(-c5c(C)ccc6[nH]ncc56)c(C5CC5)cc34)CC2)C1 [Compound 277]	pERK level in H358 cells	> 90%
C=CC(=O)N1CC2(CCN(c3nc(N4CC[C@@H](N5CC(F)C5)C4)nc4c(OCC(F)(F)F)c(-c5c(C)ccc6[nH]ncc56)c(C5CC5)cc34)CC2)C1 [Compound 202]	pERK level in H358 cells	> 90%

May I ask what inhibition at 1 µM has been recorded for C=C(F)C(=O)N1CC2(CCN(c3nc(OC4CC5(CCN(CCOC)CC5)C4)nc4c(OCC(F)(F)F)c(-c5c(C)ccc6[nH]ncc56)c(C5CC5)cc34)CC2)C1 [Compound 132] ?
> 90%

Okay, and C=CC(=O)N1CC2(CCN(c3nc(OC4CCN(CCOC)CC4)nc4c(OCC(F)(F)F)c(-c5cc(O)cc6ccccc56)c(C5CC5)cc34)CC2)C1 [Compound 60] ?
> 90%

Quick one: C=CC(=O)N1CC2(CCN(c3nc(N4CC(N5C6CCC5CC6)C4)nc4c(OCC(F)(F)F)c(-c5c(C)ccc6[nH]ncc56)c(C5CC5)cc34)CC2)C1 [Compound 270]
> 90%

Please do the same for C=C(F)C(=O)N1CC2(CCN(c3nc(OC4CCN(C)CC4)nc4c(OCC(F)(F)F)c(-c5c(C)ccc6[nH]ncc56)c(C5CC5)cc34)CC2)C1 [Compound 61] as well.
> 90%

Another: C=CC(=O)N1CC2(CCN(c3nc(N4CC5(CCN(CC(F)(F)F)CC5)C4)nc4c(OCC(F)(F)F)c(-c5c(C)ccc6[nH]ncc56)c(C5CC5)cc34)CC2)C1 [Compound 85]
> 90%

Also C=CC(=O)N1CC2(CCN(c3nc(OC4CCN(CCOC)CC4)nc4c(OCC(F)(F)F)c(-c5c(C)ccc6[nH]nnc56)c(C5CC5)cc34)CC2)C1 [Compound 39] ?
> 90%

Next up: C=CC(=O)N1CC2(CCN(c3nc(OC4CC5CCC4N5CCOC)nc4c(OCC(F)(F)F)c(-c5c(C)ccc6[nH]ncc56)c(C5CC5)cc34)CC2)C1 (stereo not shown) [Compound 309]
> 90%

Moving on to the next molecule: C=CC(=O)N1CC2(CCN(c3nc(OC4C5CC4CN(CCOC)C5)nc4c(OCC(F)(F)F)c(-c5c(C)ccc6[nH]ncc56)c(C5CC5)cc34)CC2)C1 (stereo not shown) [Compound 119]
50 to 90%

Please do the same for C=C(C#N)C(=O)N1CC2(CCN(c3nc(OC4CCN(CCOC)CC4)nc4c(OCC(F)(F)F)c(-c5c(C)ccc6[nH]ncc56)c(C5CC5)cc34)CC2)C1 [Compound 18] as well.
50 to 90%

And what about the molecule C=CC(=O)N1CC2(CCN(c3nc(N4CC[C@@H](N(C)CC)C4)nc4c(OCC(F)(F)F)c(-c5c(C)ccc6[nH]ncc56)c(C5CC5)cc34)CC2)C1 [Compound 188] ?
> 90%

Same thing, different molecule: C=C(F)C(=O)N1CC2(CCN(c3nc(OC4CCN(CCOC)CC4)nc4c(OCC(F)(F)F)c(-c5c(C)ccc6[nH]nnc56)c(C5CC5)cc34)CC2)C1 [Compound 40]
> 90%

And C=C(F)C(=O)N1CC2(CCN(c3nc(OC4CN(C5COC5)C4)nc4c(OCC(F)(F)F)c(-c5c(C)ccc6[nH]ncc56)c(C5CC5)cc34)CC2)C1 [Compound 112] ?
50 to 90%

What about C=C(F)C(=O)N1CC2(CCN(c3nc(OC4CCC5(CC4)CN(CCOC)C5)nc4c(OCC(F)(F)F)c(-c5c(C)ccc6[nH]ncc56)c(C5CC5)cc34)CC2)C1 [Compound 138] ?
> 90%

And what about the molecule C=CC(=O)N1CC2(CCN(c3nc(OC4CC5(C4)CN(CCOC)C5)nc4c(OCC(F)(F)F)c(-c5c(C)ccc6[nH]ncc56)c(C5CC5)cc34)CC2)C1 [Compound 125] ?
> 90%

What do we get for C=CC(=O)N1CC2(CCN(c3nc(N4CC[C@H](N(C)C)C4)nc4c(OCC(F)(F)F)c(-c5c(C)ccc6[nH]ncc56)c(C5CC5)cc34)CC2)C1 [Compound 185] ?
> 90%

Next molecule: C=CC(=O)N1CC2(CCN(c3nc(N4CC(N5C[C@@H](C)[C@@H](O)C5)C4)nc4c(OCC(F)(F)F)c(-c5c(C)ccc6[nH]ncc56)c(C5CC5)cc34)CC2)C1 [Compound 265]
> 90%

// same read-out, input: C=CC(=O)N1CC2(CCN(c3nc(N4CC(N5C6CCC5CC6)C4)nc4c(OCC(F)F)c(-c5c(C)ccc6[nH]ncc56)c(C5CC5)cc34)CC2)C1 [Compound 335]
> 90%

Same question for C=CC(=O)N1CC2(CCN(c3nc(N4CC(N5CC(CC#N)C5)C4)nc4c(OCC(F)(F)F)c(-c5c(C)ccc6[nH]ncc56)c(C5CC5)cc34)CC2)C1 [Compound 242] please.
> 90%

Queued: C=CC(=O)N1CC2(CCN(c3nc(OC4CCN(CCOC)CC4)nc4c(N(C)CC(F)(F)F)c(-c5c(C)ccc6[nH]ncc56)c(C5CC5)cc34)CC2)C1 [Compound 7]
50 to 90%
